Reference source: patent US20240270715A1

Readings of IC50 for the listed compounds
Molecular target: recombinant human transglutaminase 2 (Homo sapiens, UniProt P21980)
Sequence (P21980 1-687): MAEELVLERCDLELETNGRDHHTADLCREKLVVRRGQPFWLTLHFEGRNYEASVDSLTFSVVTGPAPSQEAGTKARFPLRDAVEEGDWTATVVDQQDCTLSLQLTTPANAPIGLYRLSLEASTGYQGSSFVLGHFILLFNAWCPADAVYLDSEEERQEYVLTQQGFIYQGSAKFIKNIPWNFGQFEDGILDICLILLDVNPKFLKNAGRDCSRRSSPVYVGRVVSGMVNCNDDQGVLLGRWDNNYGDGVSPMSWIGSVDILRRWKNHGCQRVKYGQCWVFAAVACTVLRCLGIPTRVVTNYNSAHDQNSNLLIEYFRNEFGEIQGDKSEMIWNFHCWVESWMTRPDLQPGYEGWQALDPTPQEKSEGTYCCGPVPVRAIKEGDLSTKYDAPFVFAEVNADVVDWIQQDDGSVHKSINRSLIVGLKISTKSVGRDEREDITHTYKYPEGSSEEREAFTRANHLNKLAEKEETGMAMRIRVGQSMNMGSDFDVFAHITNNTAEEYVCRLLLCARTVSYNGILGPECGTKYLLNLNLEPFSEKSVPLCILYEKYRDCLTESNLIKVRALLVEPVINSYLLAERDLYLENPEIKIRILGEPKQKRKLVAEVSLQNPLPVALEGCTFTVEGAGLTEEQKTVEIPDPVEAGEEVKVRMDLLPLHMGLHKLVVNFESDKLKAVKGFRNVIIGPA
Test: Transglutaminase assay: incorporation of dansylcadaverine into dimethylcasein (DCC-assay)
Assay type: biochemical
Details: recombinant human TG2 10 nM, dansylcadaverine/dimethylcasein; read-out: IC50 TG2
Protocol: To illustrate the advantage of branched alkyl moieties over aromatic moieties, we refer to reference compounds Ref. 2 (ZED1227, U.S. Pat. No. 9,434,763 B2) and Ref. 3 (A8, ZED1047). […] For the determination of potency of inhibitors against tissue transglutaminase, the incorporation of dansylcadaverine into dimethylcasein (Zedira product T036, Lorand et al., Anal Biochem, 1971, 44:221-31) was measured using recombinant human transglutaminase 2 (Zedira Product T022). […]
ASSAY_ENDPOINT: IC50

1) CCNC(=O)C(=O)CC[C@H](NC(=O)c1c[nH]c2ccccc12)C(=O)Nc1cccn(CC(=O)NC2C3CC4CC(C3)CC2C4)c1=O (stereo partly drawn)
150 to 600 nM
2) CCNC(=O)C(=O)CC[C@H](NC(=O)c1nc(C2(C)CC2)no1)C(=O)Nc1cccn(CC(=O)NC2C3CC4CC2CC(C(N)=O)(C4)C3)c1=O (stereo partly drawn)
600 to 3500 nM
3) CCNC(=O)C(=O)CC[C@H](NC(=O)c1cncn1C)C(=O)Nc1cccn(CC(=O)NC23CC4CC(CC(C4)C2)C3)c1=O
600 to 3500 nM
4) CCNC(=O)C(=O)CC[C@H](NC(=O)c1c(C)nc2sccn12)C(=O)Nc1cccn(CC(=O)N(C)C2C3CC4CC(C3)CC2C4)c1=O (stereo partly drawn)
600 to 3500 nM
5) CCNC(=O)C(=O)CC[C@H](NC(=O)c1nc2ccccc2s1)C(=O)Nc1cccn(CC(=O)N[C@@H]2C[C@@H]3CC[C@H]2C3)c1=O
150 to 600 nM
6) CCNC(=O)C(=O)CC[C@H](NC(=O)[C@@H]1CCCCN1)C(=O)Nc1cccn(CC(=O)NC2C3CC4CC2CC(Cl)(C4)C3)c1=O (stereo partly drawn)
150 to 600 nM
